# Tested on: HCT-116
# Procedure Details: Cytotoxicity against human HCT116 cells assessed as reduction in cell viability after 72 hrs by MTT assay
# Format: functional, cell-based
# Assay Setup: HCT-116, 72 h
The following compounds are shown together with reported IC50 values.

Guide cases for IC50, answers given:
CCOC(=O)Cc1oc2c(c1-c1ccc(OC)c(OC)c1)C(=O)c1ccccc1C2=O ... 6.16 µM
CCOC(=O)Cc1c(-c2ccc(OC)c(OC)c2)c2c(n1-c1cccc(Br)c1)C(=O)c1ccccc1C2=O ... > 8.72 µM
COc1ccc(-c2coc3c2C(=O)c2ccccc2C3=O)cc1 ... 5.78 µM
CCCCn1cc(-c2ccc(Cl)cc2)c2c1C(=O)c1ccccc1C2=O ... > 13.8 µM
CCOC(=O)Cc1oc2c(c1-c1cc(OC)c(OC)c(OC)c1)C(=O)c1ccccc1C2=O ... > 11.1 µM

Provide the documented IC50 with HCT-116 as the system for `COc1ccc(-n2cc(-c3ccc(F)cc3)c3c2C(=O)c2ccccc2C3=O)cc1`
> 12.6 µM

Query `CCOC(=O)Cc1c(-c2cccs2)c2c(n1-c1ccccc1)C(=O)c1ccccc1C2=O` next
> 11.3 µM

---

The following compounds are shown together with reported IC50 values.
# Test system: SF-295
# Procedure Details: Cytotoxicity against human SF295 cells assessed as reduction in cell viability after 72 hrs by MTT assay
# Assay Setup: SF-295, 72 h

Guide cases for IC50, answers given:
CCOC(=O)Cc1oc2c(c1-c1cccs1)C(=O)c1ccccc1C2=O ... > 27.3 µM
CCOC(=O)Cc1oc2c(c1/C=C/c1ccccc1)C(=O)c1ccccc1C2=O ... > 13 µM
CCOC(=O)Cc1c(-c2ccco2)c2c(n1-c1ccccc1)C(=O)c1ccccc1C2=O ... > 11.8 µM
CCOC(=O)Cc1c(-c2ccc(OC)c(OC)c2)c2c(n1-c1ccc(Br)cc1)C(=O)c1ccccc1C2=O ... 6.45 µM
CCOC(=O)Cc1c(-c2ccc(OC)c(OC)c2)c2c(n1-c1ccc(Cl)cc1)C(=O)c1ccccc1C2=O ... > 9.45 µM

Provide the documented IC50 with SF-295 as the system for `CCOC(=O)Cc1oc2c(c1-c1ccc(C)cc1)C(=O)c1ccccc1C2=O`
> 13.4 µM

Query `CCOC(=O)Cc1c(-c2ccc(C)cc2)c2c(n1-c1ccc(C)cc1)C(=O)c1ccccc1C2=O` next
> 10.8 µM

Query `COc1ccc(-c2cn(-c3ccc(OC)cc3)c3c2C(=O)c2ccccc2C3=O)cc1` next
> 12.2 µM

Query `CCOC(=O)Cc1oc2c(c1-c1ccccc1)C(=O)c1ccccc1C2=O` next
> 13.9 µM

Query `O=C1c2ccccc2C(=O)c2c(-c3cccc4c3OCO4)coc21` next
3.71 µM

---

The following molecules are shown together with reported IC50 values.
# Tested on: HCT-116
# Procedure Details: Cytotoxicity against human HCT116 cells assessed as reduction in cell viability after 72 hrs by MTT assay
# Format: functional, cell-based
# Assay Setup: HCT-116, 72 h

Guide cases for IC50, answers given:
CCOC(=O)Cc1oc2c(c1-c1ccco1)C(=O)c1ccccc1C2=O ... > 14.3 µM
CCOC(=O)Cc1oc2c(c1-c1ccccc1)C(=O)c1ccccc1C2=O ... 12.5 µM
CCOC(=O)Cc1c(-c2cc(OC)c(OC)c(OC)c2)c2c(n1-c1cccc(Br)c1)C(=O)c1ccccc1C2=O ... > 8.29 µM
O=C1c2ccccc2C(=O)c2c(-c3ccccc3[N+](=O)[O-])coc21 ... 1.28 µM

Provide the documented IC50 with HCT-116 as the system for `COc1ccc(-c2cn(-c3ccccc3)c3c2C(=O)c2ccccc2C3=O)cc1`
> 13 µM

Query `CCOC(=O)Cc1oc2c(c1-c1cccc3ccccc13)C(=O)c1ccccc1C2=O` next
> 12.2 µM

Query `CCOC(=O)Cc1c(-c2ccc(C)cc2)c2c(n1-c1ccc(C)cc1)C(=O)c1ccccc1C2=O` next
> 10.8 µM

Query `CCOC(=O)Cc1c(-c2ccc(OC)c(OC)c2)c2c(n1-c1ccc(Br)cc1)C(=O)c1ccccc1C2=O` next
> 17.4 µM

Query `CCOC(=O)Cc1c(-c2ccc(Cl)cc2)c2c(n1-c1ccc(OC)cc1)C(=O)c1ccccc1C2=O` next
> 10 µM

Query `O=C1c2ccccc2C(=O)c2c(-c3cccs3)coc21` next
5.17 µM

---

# Tested on: SF-295
# Procedure Details: Cytotoxicity against human SF295 cells assessed as reduction in cell viability after 72 hrs by MTT assay
# Assay Setup: SF-295, 72 h
pIC50: −log10 of the molar value.
The following molecules are shown together with reported pIC50 values.

Guide cases for pIC50, answers given:
Cc1ccc(-c2cn(-c3cccc(Br)c3)c3c2C(=O)c2ccccc2C3=O)cc1 ... < 4.88
O=C1c2ccccc2C(=O)c2c(-c3cccc4ccccc34)coc21 ... 5.35
COc1ccc(-c2coc3c2C(=O)c2ccccc2C3=O)cc1 ... 5.30
COc1ccc(-c2cn(-c3ccccc3)c3c2C(=O)c2ccccc2C3=O)cc1 ... < 4.89

Now for another entry.
Entry `CCOC(=O)Cc1c(-c2cccs2)c2c(n1-c1ccccc1)C(=O)c1ccccc1C2=O` has what pIC50?
< 4.95

---

# Tested on: PC-3
# Procedure Details: Cytotoxicity against human PC3 cells assessed as reduction in cell viability after 72 hrs by MTT assay
# Assay type: functional, cell-based
# Assay Setup: PC-3, 72 h
Reported Property: IC50

Entry `CCOC(=O)Cc1c(-c2ccc(OC)c(OC)c2)c2c(n1-c1ccc(Br)cc1)C(=O)c1ccccc1C2=O` has what IC50?
> 17.4 µM

Query `COc1ccc(-n2cc(-c3ccco3)c3c2C(=O)c2ccccc2C3=O)cc1` next
> 13.5 µM

Query `CCOC(=O)Cc1oc2c(c1/C=C/c1ccccc1)C(=O)c1ccccc1C2=O` next
> 13 µM

Query `CCOC(=O)Cc1c(-c2cc(OC)c(OC)c(OC)c2)c2c(n1-c1cccc(Br)c1)C(=O)c1ccccc1C2=O` next
> 8.29 µM

---

The following compounds are shown together with reported IC50 values.
# System: NCI-H460
# Procedure Details: Cytotoxicity against human NCI-H460 cells assessed as reduction in cell viability after 72 hrs by MTT assay
# Assay Setup: NCI-H460, 72 h

Guide cases for IC50, answers given:
CCOC(=O)Cc1oc2c(c1-c1ccccc1)C(=O)c1ccccc1C2=O ... 8.86 µM
CCOC(=O)Cc1oc2c(c1-c1cccc3ccccc13)C(=O)c1ccccc1C2=O ... > 12.2 µM

Entry `O=C1c2ccccc2C(=O)c2c(-c3cccc4ccccc34)coc21` has what IC50?
3.79 µM

Query `CCOC(=O)Cc1oc2c(c1-c1cccs1)C(=O)c1ccccc1C2=O` next
9.09 µM

Query `Cc1ccc(-c2cn(-c3cccc(Br)c3)c3c2C(=O)c2ccccc2C3=O)cc1` next
> 13.2 µM

Query `COc1ccc(-n2cc(-c3ccc(F)cc3)c3c2C(=O)c2ccccc2C3=O)cc1` next
> 12.6 µM

Query `CCOC(=O)Cc1c(-c2ccc(OC)c(OC)c2)c2c(n1-c1cccc(Br)c1)C(=O)c1ccccc1C2=O` next
> 8.72 µM

---

# Procedure Details: Selectivity index, ratio of IC50 for human PBMC cells to IC50 for human NCI-H460 cells
# Type: toxicity
# Assay Setup: PBMC cells versus NCI-H460 cells
Reported Property: selectivity ratio

Entry `COc1ccc(-n2cc(-c3ccc(Cl)cc3)c3c2C(=O)c2ccccc2C3=O)cc1` has what selectivity ratio?
> 3.1

---

# System: PC-3
# Procedure Details: Cytotoxicity against human PC3 cells assessed as reduction in cell viability after 72 hrs by MTT assay
# Format: functional, cell-based
# Assay Setup: PC-3, 72 h
pIC50: −log10 of the molar value.
The following molecules are shown together with reported pIC50 values.

CCOC(=O)Cc1oc2c(c1-c1cccs1)C(=O)c1ccccc1C2=O ... < 4.56
CCOC(=O)Cc1c(-c2ccco2)c2c(n1-c1ccccc1)C(=O)c1ccccc1C2=O ... < 4.93
CCOC(=O)Cc1oc2c(c1-c1ccccc1)C(=O)c1ccccc1C2=O ... < 4.86
CCOC(=O)Cc1c(-c2ccc(Cl)cc2)c2c(n1-c1ccc(OC)cc1)C(=O)c1ccccc1C2=O ... < 5.00
CCOC(=O)Cc1oc2c(c1-c1cc(OC)c(OC)c(OC)c1)C(=O)c1ccccc1C2=O ... 5.06

Now for another entry.
Provide the documented pIC50 with PC-3 as the system for `Cc1ccc(-c2cn(-c3cccc(Br)c3)c3c2C(=O)c2ccccc2C3=O)cc1`
< 4.88

---

The following compounds are shown together with reported pIC50 values.
# Tested on: SF-295
# Procedure Details: Cytotoxicity against human SF295 cells assessed as reduction in cell viability after 72 hrs by MTT assay
# Assay Setup: SF-295, 72 h
pIC50: −log10 of the molar value.

CCOC(=O)Cc1oc2c(c1-c1cccc3ccccc13)C(=O)c1ccccc1C2=O ... < 4.91
COc1ccc(-c2coc3c2C(=O)c2ccccc2C3=O)cc1OC ... 5.43

Entry `CCOC(=O)Cc1oc2c(c1-c1ccc(OC)c(OC)c1)C(=O)c1ccccc1C2=O` has what pIC50?
< 4.92

Query `Cc1ccc(-c2cn(-c3ccc(Br)cc3)c3c2C(=O)c2ccccc2C3=O)cc1` next
< 4.92

Values from ChEMBL document CHEMBL4152217
